Experimental Target: mu opioid receptor (CHO-hMOR cell membranes) (Homo sapiens, UniProt P35372)
Construct: purchased Receptor Biology, Inc. (Baltimore, Md.); host or cells: CHO cells (recombinant expression)
Sequence (P35372 whole entry): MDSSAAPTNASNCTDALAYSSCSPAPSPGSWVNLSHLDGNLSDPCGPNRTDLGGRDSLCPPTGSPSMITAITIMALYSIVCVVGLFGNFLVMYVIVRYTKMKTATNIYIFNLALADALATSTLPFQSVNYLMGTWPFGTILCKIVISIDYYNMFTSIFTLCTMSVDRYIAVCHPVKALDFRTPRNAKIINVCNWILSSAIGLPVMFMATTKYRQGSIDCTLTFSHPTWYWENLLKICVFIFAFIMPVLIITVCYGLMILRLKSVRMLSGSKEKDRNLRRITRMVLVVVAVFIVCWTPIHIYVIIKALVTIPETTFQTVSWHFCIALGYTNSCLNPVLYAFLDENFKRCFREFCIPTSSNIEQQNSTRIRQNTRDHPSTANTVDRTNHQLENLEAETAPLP
Protocol Text: Mu Opioid Receptor Functional Assay: [35S]GTPγS Binding in CHO-hMOR Cell Membranes, Versions 1 and 2
Assay type: biochemical
Condition Parameters: version 1, basal binding = 100%
Each entry below carries its recorded MOR GTP assay_v1 % of Basal.

{"columns": ["Input Smiles", "Result Units", "MOR GTP assay_v1 % of Basal"],
 "data": [
  ["Cc1cc(O)cc(C)c1C[C@H](N)C(=O)N[C@H](C)c1nc(-c2ccccc2)c[nH]1", "%", 475.00],
  ["Cc1cc(O)cc(C)c1C[C@H](N)C(=O)N(Cc1nc(-c2ccccc2C(F)(F)F)c(C)[nH]1)C(C)C", "%", 606.38],
  ["Cc1cc(O)cc(C)c1C[C@H](N)C(=O)N(Cc1nc(-c2ccccc2)c[nH]1)C(C)C", "%", 558.00],
  ["Cc1cc(O)cc(C)c1C[C@H](N)C(=O)N(Cc1nc(-c2ccccc2Cl)c(C)[nH]1)C(C)C", "%", 655.93],
  ["CCN(C(=O)[C@@H](N)Cc1ccc(O)cc1)[C@@H](C)c1nc(-c2ccccc2)c[nH]1", "%", 606.00],
  ["CCN(C(=O)[C@@H](N)Cc1c(C)cc(C(N)=O)cc1C)[C@@H](C)c1nc(-c2ccccc2)c[nH]1", "%", 582.00],
  ["CCN(C(=O)[C@@H](N)Cc1c(C)cc(O)cc1C)[C@H](C)c1nc(-c2ccccc2)c[nH]1", "%", 599.00],
  ["C[C@@H](c1nc(-c2ccccc2)c[nH]1)N(Cc1ccccc1)C(=O)[C@@H](N)Cc1ccc(O)cc1", "%", 611.00]
]}

---

Experimental Target: human mu opioid receptor (Homo sapiens)
Construct: purchased Perkin Elmer RBHOMM400UA; host or cells: Chinese Hamster Ovary cells (recombinant expression)
Protocol Text: Human Mu Opioid Receptor Binding Assay (CHO membranes, 3H-Damgo)
Condition Parameters: read-out: hKi μ
Consider the cut-off 20 nM. If the recorded Ki is strictly smaller, the label is YES; if not, the label is NO.

{"columns": ["Compound", "Answer Label"],
 "data": [
  ["Cc1cc(C(N)=O)cc(C)c1C[C@H](N)C(=O)N(C(C)c1ccccc1)[C@@H](C)c1nc(-c2ccccc2)c[nH]1 (single isomer, unassigned) [Cpd 112]", "YES"],
  ["Cc1cc(O)cc(C)c1C[C@H](N)C(=O)N(Cc1nc(-c2ccccc2)c[nH]1)C(c1ccccc1)c1ccccc1", "NO"],
  ["Cc1cc(C(N)=O)cc(C)c1C[C@H](N)C(=O)N(Cc1cccc(C(=O)O)c1)[C@@H](C)c1nc(-c2ccc(Cl)cc2)c(C)[nH]1", "YES"],
  ["Cc1cc(O)cc(C)c1C[C@H](N)C(=O)N[C@@H](C)c1nc(-c2ccccc2)c[nH]1", "NO"],
  ["Cc1cc(O)cc(C)c1C[C@H](N)C(=O)N(Cc1nc(C=Cc2ccccc2)c(C)[nH]1)C(C)C", "YES"],
  ["CNc1ccc(CN(C(=O)C(N)Cc2c(C)cc(O)cc2C)C(C)c2nc(-c3ccccc3)c[nH]2)cc1 (stereo not shown)", "YES"]
]}

---

Experimental Target: human mu opioid receptor (Homo sapiens, UniProt P35372)
Construct: purchased Perkin Elmer RBHOMM400UA; host or cells: Chinese Hamster Ovary cells (recombinant expression)
Sequence (P35372 whole entry): as above
Protocol Text: Human Mu Opioid Receptor Binding Assay (CHO membranes, 3H-Damgo)
Condition Parameters: read-out: hKi μ
# 1 (yes) = Ki below 6 nM (exclusive); 0 (no) = Ki at/above 6 nM

{"columns": ["Input Smiles", "Answer Label"],
 "data": [
  ["Cc1cc(O)cc(C)c1C[C@H](N)C(=O)N(Cc1nc(-c2ccc(C(=O)O)c(F)c2)c(C)[nH]1)C(C)C", "0 (no)"],
  ["COc1ccc(CN(Cc2nc(-c3ccccc3)c[nH]2)C(=O)[C@@H](N)Cc2ccc(C(N)=O)cc2)cc1C(=O)O", "1 (yes)"],
  ["Cc1cc(O)cc(C)c1C[C@H](N)C(=O)N(Cc1nc(-c2cccc3ccccc23)c(C)[nH]1)C(C)C", "1 (yes)"],
  ["Cc1cc(O)cc(C)c1C[C@H](N)C(=O)N(Cc1ccccc1)[C@H](C)c1nc(-c2ccccc2)c[nH]1", "0 (no)"],
  ["C[C@H](c1nc(-c2ccccc2)c[nH]1)N(C)C(=O)[C@@H](N)Cc1ccc(O)cc1", "1 (yes)"],
  ["Cc1cc(C(N)=O)cc(C)c1C[C@H](N)C(=O)N(Cc1ccccc1)[C@@H](C)c1nc(-c2ccc(C(F)(F)F)cc2)c[nH]1", "1 (yes)"],
  ["Cc1cc(C(N)=O)cc(C)c1C[C@H](N)C(=O)N(Cc1ccccc1)[C@@H](C)c1nc(-c2cccc(F)c2)c[nH]1", "1 (yes)"],
  ["Cc1cc(C(N)=O)cc(C)c1C[C@H](N)C(=O)N(C1CCCCC1)[C@H](C)c1nc(-c2ccccc2)c[nH]1", "0 (no)"],
  ["COc1ccc(CN(C(=O)[C@@H](N)Cc2c(C)cc(C(N)=O)cc2C)[C@@H](C)c2nc(-c3ccccc3C(=O)O)c[nH]2)cc1OC", "0 (no)"],
  ["C[C@@H](c1nc(-c2ccccc2)c[nH]1)N(Cc1ccc(C(=O)O)o1)C(=O)[C@@H](N)Cc1ccc(C(N)=O)cc1", "0 (no)"],
  ["Cc1cc(C(N)=O)cc(C)c1C[C@H](N)C(=O)N(C1CCCCC1)[C@@H](C)c1nc(-c2ccccc2)c[nH]1", "0 (no)"],
  ["COc1ccc(CN(C(=O)[C@@H](N)Cc2c(C)cc(O)cc2C)[C@@H](C)c2nc(-c3ccccc3)c[nH]2)cc1", "0 (no)"],
  ["Cc1ccccc1-c1nc(CN(C(=O)[C@@H](N)Cc2c(C)cc(O)cc2C)C(C)C)[nH]c1C", "1 (yes)"],
  ["CC(C)N(C(=O)[C@@H](N)Cc1cccc(C#N)c1)[C@@H](Cc1ccccc1)c1nc(-c2ccccc2)c[nH]1", "1 (yes)"]
]}

---

Experimental Target: human delta subtype 2 opioid receptor (Homo sapiens)
Sequence (P41143 whole entry): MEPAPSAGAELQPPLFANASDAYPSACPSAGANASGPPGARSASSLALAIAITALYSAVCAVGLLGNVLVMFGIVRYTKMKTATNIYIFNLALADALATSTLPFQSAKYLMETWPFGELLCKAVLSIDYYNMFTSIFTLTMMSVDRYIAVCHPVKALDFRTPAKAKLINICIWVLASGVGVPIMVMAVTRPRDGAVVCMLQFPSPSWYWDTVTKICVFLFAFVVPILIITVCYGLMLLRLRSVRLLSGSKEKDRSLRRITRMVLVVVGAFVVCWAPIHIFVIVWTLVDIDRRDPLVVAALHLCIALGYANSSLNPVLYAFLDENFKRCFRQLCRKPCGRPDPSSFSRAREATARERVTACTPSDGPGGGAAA
Protocol Text: Human Delta Opioid Receptor Binding Assay (CHO membranes, 3H-Naltrindole)
Condition Parameters: read-out: hKi δ

{"columns": ["Input Smiles", "Experimental Target", "Result Units", "Inequality Operator", "Ki"],
 "data": [
  ["N[C@@H](Cc1ccc(O)cc1)C(=O)N(Cc1nc(-c2ccccc2)c[nH]1)C1CCCCC1", "human delta subtype 2 opioid receptor (Homo sapiens)", "µM", ">", 10],
  ["Cc1cc(C(N)=O)cc(C)c1C[C@H](N)C(=O)N(Cc1ccccc1)[C@@H](C)c1nc(-c2ccccc2)c[nH]1", "human delta subtype 2 opioid receptor (Homo sapiens)", "µM", "=", 0.049],
  ["Cc1cc(O)cc(C)c1C[C@H](N)C(=O)N(C(C)C)[C@@H](COCc1ccccc1)c1nc(-c2ccccc2)c[nH]1", "human delta subtype 2 opioid receptor (Homo sapiens)", "µM", "=", 1.18],
  ["COc1ccc(-c2nc(CN(C(=O)[C@@H](N)Cc3c(C)cc(O)cc3C)C(C)C)[nH]c2C)cc1", "human delta subtype 2 opioid receptor (Homo sapiens)", "µM", "=", 0.237],
  ["Cc1cc(O)cc(C)c1C[C@H](N)C(=O)N(Cc1ccc(O)cc1)[C@@H](C)c1nc(-c2ccccc2)c[nH]1", "human delta subtype 2 opioid receptor (Homo sapiens)", "µM", "=", 0.0157],
  ["Cc1cc(O)cc(C)c1C[C@H](N)C(=O)N(Cc1nc(-c2cccc(CO)c2)c(C)[nH]1)C(C)C", "human delta subtype 2 opioid receptor (Homo sapiens)", "µM", "=", 0.712],
  ["Cc1cc(O)cc(C)c1C[C@H](N)C(=O)N(Cc1cccc(Oc2ccccc2)c1)[C@@H](C)c1nc(-c2ccccc2)c[nH]1", "human delta subtype 2 opioid receptor (Homo sapiens)", "µM", "=", 0.054],
  ["Cc1[nH]c(CN(C(=O)[C@@H](N)Cc2ccc(O)cc2)C(C)C)nc1-c1ccccc1", "human delta subtype 2 opioid receptor (Homo sapiens)", "µM", ">", 10],
  ["CN(Cc1nc(-c2ccccc2)c[nH]1)C(=O)[C@@H](N)Cc1ccc(O)cc1", "human delta subtype 2 opioid receptor (Homo sapiens)", "µM", ">", 10],
  ["Cc1cc(O)cc(C)c1C[C@H](N)C(=O)N(CC1CCCCC1)[C@@H](C)c1nc(-c2ccccc2)c[nH]1", "human delta subtype 2 opioid receptor (Homo sapiens)", "µM", "=", 0.225],
  ["Cc1cc(O)cc(C)c1C[C@H](N)C(=O)N(C)[C@@H](C)c1nc(-c2ccccc2)c[nH]1", "human delta subtype 2 opioid receptor (Homo sapiens)", "µM", "=", 0.132],
  ["Cc1cc(O)cc(C)c1C[C@H](N)C(=O)N(CC1CCN(C(=O)OCc2ccccc2)CC1)[C@@H](C)c1nc(-c2ccccc2)c[nH]1", "human delta subtype 2 opioid receptor (Homo sapiens)", "µM", "=", 0.096],
  ["Cc1cc(O)cc(C)c1C[C@H](N)C(=O)N(C(C)C)[C@@H](Cc1cccc(CN)c1)c1nc(-c2ccccc2)c[nH]1", "human delta subtype 2 opioid receptor (Homo sapiens)", "µM", "=", 0.74],
  ["Cc1cc(C(N)=O)cc(C)c1C[C@H](N)C(=O)N(Cc1ccccc1)Cc1nc(-c2ccccc2)c[nH]1", "human delta subtype 2 opioid receptor (Homo sapiens)", "µM", "=", 0.584],
  ["Cc1cc(O)cc(C)c1C[C@H](N)C(=O)N(Cc1nc(-c2cccc(Cl)c2)c(C)[nH]1)C(C)C", "human delta subtype 2 opioid receptor (Homo sapiens)", "µM", "=", 0.085]
]}
